- Target or system: PAD1 (Homo sapiens, UniProt Q9ULC6)
- Construct: made in house
- Sequence (Q9ULC6 whole entry): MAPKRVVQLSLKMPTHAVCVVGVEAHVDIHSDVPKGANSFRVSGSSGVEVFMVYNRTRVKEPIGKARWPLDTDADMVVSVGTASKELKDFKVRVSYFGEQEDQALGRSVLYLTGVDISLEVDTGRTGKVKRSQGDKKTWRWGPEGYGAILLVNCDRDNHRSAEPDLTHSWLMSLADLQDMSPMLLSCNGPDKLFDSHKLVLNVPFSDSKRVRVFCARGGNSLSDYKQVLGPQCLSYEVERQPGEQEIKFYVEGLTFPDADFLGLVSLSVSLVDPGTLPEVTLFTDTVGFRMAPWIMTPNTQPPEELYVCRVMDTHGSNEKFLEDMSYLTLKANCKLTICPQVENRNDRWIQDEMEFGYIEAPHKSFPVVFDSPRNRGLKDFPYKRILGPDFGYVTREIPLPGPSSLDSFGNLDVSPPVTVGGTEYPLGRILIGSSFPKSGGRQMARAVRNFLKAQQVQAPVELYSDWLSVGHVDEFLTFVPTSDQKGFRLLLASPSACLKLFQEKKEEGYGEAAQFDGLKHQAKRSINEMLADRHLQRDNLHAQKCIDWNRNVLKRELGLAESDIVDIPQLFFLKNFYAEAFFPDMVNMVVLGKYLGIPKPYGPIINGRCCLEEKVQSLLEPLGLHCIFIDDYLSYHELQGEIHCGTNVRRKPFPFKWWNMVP
- Method: Histone H3 citrullination in HEK293TPAD1 cells
- Format: cell-based
- Condition: 1 mM CaCl2, 5 μM ionomycin, 3 h, read-out: EC50 of inhibition of histone H3 citrullination
- Method: The final concentration of DMSO in each well was 1%. […] All the experiments were performed at least in duplicate.
Property measured: EC50 (µM)

1: N=C(CF)NCCC[C@H](NC(=O)c1cc(I)c(F)c(I)c1O)c1nc2ccccc2[nH]1 [Compound 19]
2: N=C(CF)NCCC[C@H](NC(=O)c1cc(I)cc(I)c1O)c1nc2ccccc2[nH]1 [Compound 1]
Could you please tell me which of these two has the higher EC50: 1 or 2 ? State the label of the item chosen. 1
(1: 31.8 µM, 2: 14.5 µM)
